Taken from the supplement of paper PMC12494721.

test system: Ruminococcus gnavus DSM 108212; test: fold change of 2-Phenylethylamine concentration vs plate DMSO controls (fold change (ratio)); higher = more amine produced, active = hit call of the paper (significant change in both replicates, either direction); settings: incubation time: 27 h, anaerobic, 37 °C
Counter-ions that a name gives are not always drawn.
Recorded endpoint: fold change of 2-Phenylethylamine concentration
// return a plain number; no unit text

Compound	Target or test system	Numeric readout
C[C@@H]1C[C@H]2[C@@H]3CCC4=CC(=O)C=C[C@]4(C)[C@@]3(Cl)[C@@H](O)C[C@]2(C)[C@@]1(OC(=O)c1ccco1)C(=O)CCl [Mometasone furoate] (20 µM)	Ruminococcus gnavus DSM 108212	0.898
COC(=O)Nc1nc2cc(C(=O)c3ccc(F)cc3)ccc2[nH]1 [Flubendazol] (20 µM)	Ruminococcus gnavus DSM 108212	0.919

Consider now this further compound.
Return fold change of 2-Phenylethylamine concentration (reported value) for this compound: CCOc1ccc(Cc2nccc3cc(OCC)c(OCC)cc23)cc1OCC [Ethaverine hydrochloride] (20 µM) 0.895
